target: Metabotropic glutamate receptor 5 (Homo sapiens, UniProt P41594); assay: Positive allosteric modulation of mGlu5 receptor (unknown origin)
Sequence (P41594 whole entry): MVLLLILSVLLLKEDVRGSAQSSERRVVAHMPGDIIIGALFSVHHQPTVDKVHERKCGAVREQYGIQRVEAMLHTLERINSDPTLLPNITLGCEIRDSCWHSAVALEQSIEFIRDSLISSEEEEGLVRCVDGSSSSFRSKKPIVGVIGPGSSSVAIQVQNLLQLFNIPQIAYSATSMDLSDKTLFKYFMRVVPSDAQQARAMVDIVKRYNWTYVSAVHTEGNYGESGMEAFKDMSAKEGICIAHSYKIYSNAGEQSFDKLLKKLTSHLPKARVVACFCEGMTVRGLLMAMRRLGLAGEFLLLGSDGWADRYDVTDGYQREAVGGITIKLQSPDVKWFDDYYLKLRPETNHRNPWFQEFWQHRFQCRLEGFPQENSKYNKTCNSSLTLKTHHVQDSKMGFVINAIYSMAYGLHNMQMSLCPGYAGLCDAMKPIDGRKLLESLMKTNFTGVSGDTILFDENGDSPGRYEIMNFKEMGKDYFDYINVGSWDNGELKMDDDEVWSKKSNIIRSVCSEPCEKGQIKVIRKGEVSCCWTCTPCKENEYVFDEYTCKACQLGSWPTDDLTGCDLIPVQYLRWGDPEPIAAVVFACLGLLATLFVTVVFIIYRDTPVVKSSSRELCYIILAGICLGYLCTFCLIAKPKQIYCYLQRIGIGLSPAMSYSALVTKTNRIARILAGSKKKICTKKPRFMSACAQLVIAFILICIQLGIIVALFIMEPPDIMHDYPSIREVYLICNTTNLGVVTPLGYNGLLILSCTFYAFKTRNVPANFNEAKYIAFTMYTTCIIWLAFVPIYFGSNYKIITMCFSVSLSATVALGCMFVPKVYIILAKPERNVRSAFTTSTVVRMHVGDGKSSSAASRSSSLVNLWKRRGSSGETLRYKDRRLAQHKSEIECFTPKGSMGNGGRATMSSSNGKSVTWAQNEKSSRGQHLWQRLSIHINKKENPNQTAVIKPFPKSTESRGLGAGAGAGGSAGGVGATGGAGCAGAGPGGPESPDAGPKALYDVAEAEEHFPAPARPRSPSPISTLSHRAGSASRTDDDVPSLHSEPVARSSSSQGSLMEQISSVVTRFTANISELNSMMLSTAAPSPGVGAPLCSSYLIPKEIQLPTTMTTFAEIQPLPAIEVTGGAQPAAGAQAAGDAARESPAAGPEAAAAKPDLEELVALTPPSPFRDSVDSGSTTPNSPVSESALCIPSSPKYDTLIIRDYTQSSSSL
pEC50: −log10 of the molar value.
metric: pEC50

Q) Any idea what pEC50 was measured for "[2H]C([2H])([2H])Oc1cc(F)cc2c(N3CCN(c4ccccc4F)CC3)c(C#N)cnc12" ?
A) < 4.52

###

target: Metabotropic glutamate receptor 7 (Rattus norvegicus); assay: Positive allosteric modulation of rat mGlu7 receptor expressed in HEK293 cells co-expressing Gai5 assessed as potentiation of L-AP4-induced calcium mobilization preincubated for 140 secs and treated with EC20 L-AP4 for 125 secs and followed by subsequent addition of EC80 L-AP4 by Fluo-4-AM dye based fluorescence assay relative to maximal induction of L-AP4; format: functional, cell-based; details: filed as positive allosteric modulator, time 140.0 sec
Response field label: string, one of true (Activity strictly below 50%) or false.

Q) Dear colleague, could you confirm whether Activity of "COc1c(F)ccc2c(N3CCN(c4ccccc4F)CC3)c(C#N)cnc12" falls below 50%? Thanks.
A) false

Q) Hello, is Activity of the following compound strictly smaller than 50%? "N#Cc1cnc2c(N3CCC(F)(F)CC3)cccc2c1N1CCN(c2ccccc2F)CC1"
A) true

Q) API: query returns whether the compound falls strictly under 50% in Activity. Query: "N#Cc1cnc2c(O)cccc2c1N1CCN(c2ccccc2F)CC1"
A) false

Q) Hello, is Activity of the following compound strictly smaller than 50%? N#Cc1cnc2c(OCC3CCOC3)cc(F)cc2c1N1CCN(c2ccccc2F)CC1 (centres undefined)
A) false

Q) Is the reported Activity for "COc1c(F)c(F)cc2c(N3CCN(c4ccccc4F)CC3)c(C#N)cnc12" strictly below 50%?
A) false

Q) Please let me know if N#Cc1cnc2c(OC3CCOC3)cccc2c1N1CCN(c2ccccc2F)CC1 (racemic) shows Activity below 50%.
A) false

Q) Lab log: compare recorded Activity with 50%; is it strictly lower for "N#Cc1cnc2c(-n3cccn3)cccc2c1N1CCN(c2ccccc2F)CC1" ?
A) true

Q) Does this compound meet the criterion Activity < 50%? "N#Cc1cnc2c(OC3CCC3)cc(F)cc2c1N1CCN(c2ccccc2F)CC1"
A) true

Q) Regarding N#Cc1cnc2c(OC3CCOC3)cccc2c1N1CCN(c2ccccc2F)CC1 (single isomer, unassigned; (+)) , kindly confirm whether its Activity is beneath 50%.
A) false
